Recorded self-cleavage for the following variants
B1: HDV Ribozyme (parent)
chain: GGCCGGCAUGGUCCCAGCCUCCUCGCUGGCGCCGGCUGGGCAACAUUCCGAGGGGACCGUCCCCUCGGUAAUGGCGAAUGGGACCCA

# Variants of: B1
# Protocol Details: self-cleavage, relative activity (ratio to wild type); higher = more cleavage; co-transcriptional
Keep the answer to the number alone.

{"columns": ["Input Sequence", "Obs Value"],
 "data": [
  ["GGCCGGCAUGGUCCCAGCCUCCUCGCGGGCGCCGGCUGGGCAACAUUCCGAGGGGACCGUCCCCUCGGUAAUGGCGAAGGGGACCCA [U27G U79G]", 0.427],
  ["GGCCGGCAUGGUCCCAGCCUACUCUCUGGCGCCGGCUGGGCAACAUUCCGAGGGGACCGUCCCCUCGGUAAUGGCGAAUGGGACCCA [C21A G25U]", 0.113],
  ["GGCCGGCAUGGUCCCGGCCUCCUCGCUGGCGCCGGCUGGGCAACAUUCCGAGGGGAACGUCCCCUCGGUAAUGGCGAAUGGGACCCA [A16G C57A]", 1.18],
  ["GGCCGUCAUGGUCCCAGCCCCCUCGCUGGCGCCGGCUGGGCAACAUUCCGAGGGGACCGUCCCCUCGGUAAUGGCGAAUGGGACCCA [G6U U20C]", 0.133],
  ["GGCCGGCAUGGUCCCAGCCACCUCGCUGGCGCCGGUUGGGCAACAUUCCGAGGGGACCGUCCCCUCGGUAAUGGCGAAUGGGACCCA [U20A C36U]", 0],
  ["GGCCGGCAUGGUCCCAGCCUCCUCGCUGGCGCCGGCUGGGCAACAUUCCGAGGGGACUGUCCCCUCGGUAGUGGCGAAUGGGACCCA [C58U A71G]", 1.08],
  ["GGCCGGCAUGGUCCCAGCCUCCUCGCUGGCGCCGGCUGGGCAACAUUCCGAGGGGACCGUCCCCUCGGCAAUGGCGAAUGGGACUCA [U69C C85U]", 1.15],
  ["GGCCGGCAUGGUCCCAGCCUCCUCGCUGGCGCCGGCUGGGCAACAUUCCGUGGGGACAGUCCCCUCGGUAAUGGCGAAUGGGACCCA [A51U C58A]", 1.04]
]}

Request: # return recorded self-cleavage for entry GGCCGGCAUGGUCCCAGCCUCCUCGCUGGCGCCGGCUGGGCAACAUUCCGAGGGGACCGUGCCCUCGGUCAUGGCGAAUGGGACCCA [C61G A70C]
Result: 0.944

Request: # return recorded self-cleavage for entry GGCCGGCAUGGUCCCAGCCUCAUCGCUGGCGCCGGCUGGGCAACAUUCCGAGGGGACCGUCCCCUCGGUAUUGGCGAAUGGGACCCA [C22A A71U]
Result: 0.326

Request: # return recorded self-cleavage for entry GGCCGGCAUGGUCCCAGCCUCCUCGCUGGCGCCGGCUGGGCAACAUUCCGAGGGGACCGUCUCCUCGGUAAUGGCGAAUGAGACCCA [C62U G81A]
Result: 0.531

Request: # return recorded self-cleavage for entry GGCGGGCAUGGUCCCAGCCUCCUCGCUGGUGCCGGCUGGGCAACAUUCCGAGGGGACCGUCCCCUCGGUAAUGGCGAAUGGGACCCA [C4G C30U]
Result: 0.0615

Request: # return recorded self-cleavage for entry GGCCGGCAUGGUCCCAGCCUCCUCGCUGGCGCCGGCUGAGCAACAUUCCGAGGGGACCGUCGCCUCGGUAAUGGCGAAUGGGACCCA [G39A C62G]
Result: 0.129

Request: # return recorded self-cleavage for entry GGCCGCCAUGGUCCCAGCCUCCUCUCUGGCGCCGGCUGGGCAACAUUCCGAGGGGACCGUCCCCUCGGUAAUGGCGAAUGGGACCCA [G6C G25U]
Result: 0.166

Request: # return recorded self-cleavage for entry GGCCGGCAUGGUCCCAGCCUCCUCGCUGGCGCCGGCUGGGCAACAUUCCGAGGGGACCGUCGCCUCGGUAAUGGCGAAUGGGACCCC [C62G A87C]
Result: 0.661

Just for reference, the RNAGym collection of RNA variant scans (doi:10.7554/elife.80360) is where these values come from.
